Please respond with reported relative binding ratio for every item in the list.
Target: T1, HLA-DRB1*0401 (human)
T1 construct: also called DR4w4
Assay: competition with 125I-labeled standard peptide, purified HLA-DR, gel filtration

{"BINDER": "QGFFCPDPAPGAGGM (synthetic 15-mer; also called Her2/neu.1028) [HER2/neu DR supermotif exemplary peptide QGFFCPDPAPGAGGM (position 1028)]", "relative binding ratio": "0.023 ratio (standard IC50 / test IC50)"}

From here, focus on the item given below.
The binder listed as KEILDEAYVMAGVGS (synthetic 15-mer; also called Her2/neu.765) [HER2/neu DR supermotif exemplary peptide KEILDEAYVMAGVGS (position 765)] shows relative binding ratio equal to 0.0073 ratio (standard IC50 / test IC50)

Hey, just so you know, these numbers are from patent US20040018971A1.
